The reported numbers originate from patent US20050209278A1.

Reported pKi values for the following compounds.
# Target or test system: MMP-14 (Homo sapiens, UniProt P50281)
# Construct: The catalytic domain enzyme was expressed in E. coli inclusion bodies, solubilized in urea; made in house
# Assay comment: In vitro MMP inhibition, Ki determination (fluorogenic substrate II)
# Format: biochemical
# Run parameters: value outside parentheses; read-out: MMP-14 Ki
pKi: −log10 of the molar value.
Measurement name: pKi

{"columns": ["Compound", "Readout relation", "Assay value"],
 "data": [
  ["O=C(NO)C1(S(=O)(=O)N2CCN(c3ccc(-c4ccccc4F)cn3)CC2)CCOCC1 [Example 317]", "=", 6.19],
  ["O=C(NO)C1(S(=O)(=O)N2CCN(c3ccc(-c4ccc(F)cc4F)cn3)CC2)CCOCC1 [Example 316]", "=", 6.04],
  ["O=C(NO)C1(S(=O)(=O)N2CCN(c3ccc(-c4cccc(OC(F)(F)F)c4)cn3)CC2)CCOCC1 [Example 319]", "<", 5.00],
  ["O=C(NO)C1(S(=O)(=O)N2CCN(c3ncc(-c4ccc(C(F)(F)F)cc4)s3)CC2)CCOCC1 [Example 346]", "=", 6.94],
  ["N#Cc1ccc(-c2cnc(N3CCN(S(=O)(=O)C4(C(=O)NO)CCOCC4)CC3)s2)cc1 [Example 399]", "=", 8.01],
  ["CCCCOc1ccc(N2CCN(S(=O)(=O)C3(C(=O)NO)CCN(CC4CC4)CC3)CC2)cc1 [Example 298]", "<", 5.00],
  ["O=C(NO)C1(S(=O)(=O)N2CCN(c3ccc(OCC(F)(F)C(F)F)cc3)CC2)CCOCC1 [Example 336]", "=", 5.60],
  ["COc1ccc(-c2cnc(N3CCN(S(=O)(=O)C4(C(=O)NO)CCOCC4)CC3)s2)cc1OC [Example 371]", "=", 5.80],
  ["O=C(NO)C1(S(=O)(=O)N2CCC(c3ccc(N4CCCC4)cn3)CC2)CCOCC1 [Example 408]", "=", 5.98]
]}

----------
Below, each of the molecules is paired with its reported Ki value.
# Target or test system: MMP-2 (Homo sapiens)
# Construct: made in house; host or cells: MMP-2-transfected p2AHT2 cells
# Sequence (P08253 110-660, species assumed): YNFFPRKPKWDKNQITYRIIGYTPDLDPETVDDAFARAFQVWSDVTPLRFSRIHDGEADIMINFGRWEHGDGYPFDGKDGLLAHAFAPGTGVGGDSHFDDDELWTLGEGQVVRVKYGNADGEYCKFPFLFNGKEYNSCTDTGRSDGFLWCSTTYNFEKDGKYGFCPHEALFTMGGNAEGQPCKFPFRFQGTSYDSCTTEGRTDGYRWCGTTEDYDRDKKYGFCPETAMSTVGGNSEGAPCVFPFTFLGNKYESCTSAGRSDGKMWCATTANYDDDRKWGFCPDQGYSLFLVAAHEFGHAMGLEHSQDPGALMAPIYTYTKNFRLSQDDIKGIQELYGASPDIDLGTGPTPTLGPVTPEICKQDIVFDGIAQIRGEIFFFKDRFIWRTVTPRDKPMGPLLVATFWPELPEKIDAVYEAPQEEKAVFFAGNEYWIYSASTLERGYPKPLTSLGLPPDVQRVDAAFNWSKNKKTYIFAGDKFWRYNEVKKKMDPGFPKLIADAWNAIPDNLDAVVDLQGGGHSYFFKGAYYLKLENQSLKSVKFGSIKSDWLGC
# Assay comment: MMP-2 inhibition (in vitro Ki)
# Type: biochemical
# Run parameters: Table 9; read-out: MMP-2 Ki (IC-50)

{"columns": ["Smiles notation", "Display unit", "Ki"],
 "data": [
  ["CCN1CCC(C(=O)NO)(S(=O)(=O)N2CCC(c3ccc(CCC(F)(F)C(F)(F)F)cn3)CC2)CC1", "nM", 2.36],
  ["CNC(=O)CCCCC1CCN(S(=O)(=O)C2(C(=O)NO)CCOCC2)CC1", "nM", 23.8],
  ["CCOCc1ccc(C2CCN(S(=O)(=O)C3(C(=O)NO)CCOCC3)CC2)nc1", "nM", 2.51],
  ["O=C(CCCCC1CCN(S(=O)(=O)C2(C(=O)NO)CCOCC2)CC1)N1CCOCC1", "nM", 82.3]
]}

----------
# Target or test system: MMP-14 (Homo sapiens)
# Construct: The catalytic domain enzyme was expressed in E. coli inclusion bodies, solubilized in urea; made in house
# Assay comment: In vitro MMP inhibition, Ki determination (fluorogenic substrate II)
# Format: biochemical
# Run parameters: human recombinant enzyme (catalytic domain); 4 μM substrate II; room temperature, 1 hr; read-out: MMP-14 Ki
Counter-ions that a name gives are not always drawn.
Measurement name: Ki (µM)

{"columns": ["Compound", "Display unit", "Readout relation", "Assay value"],
 "data": [
  ["CCCCCc1ccc(N2CCN(S(=O)(=O)C3(C(=O)NO)CCOCC3)CC2)c(F)c1 [Example 23, Hydrochloride]", "µM", ">", 10],
  ["CCCCOc1ccc(N2CCN(S(=O)(=O)C3(C(=O)NO)CCN(CCOC)CC3)CC2)cc1F [Example 11, Dihydrochloride]", "µM", "=", 3.6],
  ["COCCOc1ccc(N2CCN(S(=O)(=O)C3(C(=O)NO)CCOCC3)CC2)cc1 [Example 14, Hydrochloride]", "µM", "=", 9.17],
  ["O=C(NO)C1(S(=O)(=O)N2CCN(c3ccc(-c4ccccc4)c(F)c3)CC2)CCOCC1 [Example 12, Hydrochloride]", "µM", "=", 1.71],
  ["CCCCc1ccc(C2CCN(S(=O)(=O)C3(C(=O)NO)CCN(C4CC4)CC3)CC2)nc1 [Example 24, Hydrochloride]", "µM", "=", 2.9],
  ["CCCCc1ccc(C2CCN(S(=O)(=O)C3(C(=O)NO)CCOCC3)CC2)s1", "µM", "=", 2.19],
  ["O=C(NO)C1(S(=O)(=O)N2CCN(c3ccc(CCC(F)(F)C(F)(F)F)cc3)CC2)CCOCC1 [Example 17, Hydrochloride]", "µM", "=", 7.97]
]}

----------
# Target or test system: MMP-1 (Homo sapiens)
# Construct: made in house; host or cells: MMP-1-transfected HT-1080 cells (spent media)
# Sequence (P03956 100-469): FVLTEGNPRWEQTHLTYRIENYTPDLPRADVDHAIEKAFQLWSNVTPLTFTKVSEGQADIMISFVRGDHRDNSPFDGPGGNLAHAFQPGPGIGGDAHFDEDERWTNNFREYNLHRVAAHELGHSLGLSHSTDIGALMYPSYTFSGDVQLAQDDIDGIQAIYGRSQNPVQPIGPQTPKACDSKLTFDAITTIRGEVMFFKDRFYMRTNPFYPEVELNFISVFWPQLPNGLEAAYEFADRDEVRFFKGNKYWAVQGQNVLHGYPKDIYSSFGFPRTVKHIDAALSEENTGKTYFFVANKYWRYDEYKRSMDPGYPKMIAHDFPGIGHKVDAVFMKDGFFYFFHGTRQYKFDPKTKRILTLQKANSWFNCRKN
# Assay comment: In vitro MMP inhibition, Ki determination (fluorogenic substrate II)
# Assay type: biochemical
# Run parameters: value not in parenthesis; read-out: MMP-1 Ki
Form field: Ki (one value per entry).

{"columns": ["Compound", "Ki"],
 "data": [
  ["CC(C)CCc1ccc(N2CCN(S(=O)(=O)C3(C(=O)NO)CCOCC3)CC2)nc1", "> 10 µM"],
  ["O=C(NO)C1(S(=O)(=O)N2CCN(c3ccc(-c4ccccc4)cc3)CC2)CCOCC1", "1.34 µM"],
  ["CCCCOc1ccc(N2CCN(S(=O)(=O)C3(C(=O)NO)CCN(c4ccc(OC(F)(F)C(F)F)cc4)CC3)CC2)cc1", "> 10 µM"],
  ["C#CCOC(=O)N1CCC(C(=O)NO)(S(=O)(=O)N2CCN(c3ccc(OCCCC)cc3)CC2)CC1", "> 10 µM"],
  ["O=C(NO)C1(S(=O)(=O)N2CCN(c3ccc(OC4CCC4)c(F)c3)CC2)CCOCC1", "> 10 µM"],
  ["CCCCc1ccc(N2CCN(S(=O)(=O)C3(C(=O)NO)CCN(CCOC)CC3)CC2)cc1F", "> 10 µM"],
  ["COCCN1CCC(C(=O)NO)(S(=O)(=O)N2CCN(c3ccc(Br)cc3)CC2)CC1", "2.73 µM"],
  ["O=C(NO)C1(S(=O)(=O)N2CCN(c3ccc(COCC(F)(F)C(F)(F)F)cc3)CC2)CCOCC1", "> 10 µM"],
  ["CCCCOc1ccc(N2CCN(S(=O)(=O)C3(C(=O)NO)CCN(c4ccc(C#N)cc4)CC3)CC2)cc1", "> 10 µM"],
  ["CCCCOc1ccc(N2CCN(S(=O)(=O)C3(C(=O)NO)CCN(c4ccc(C)cn4)CC3)CC2)cc1", "> 10 µM"],
  ["CCCCOc1ccc(N2CCN(S(=O)(=O)C3(C(=O)NO)Cc4ccccc4C3)CC2)nc1", "4.77 µM"],
  ["O=C1c2ccccc2C(=O)N1CCCCc1ccc(N2CCN(S(=O)(=O)C3(C(=O)NO)CCOCC3)CC2)nc1", "0.0661 µM"],
  ["CCCCOc1ccc(N2CCN(S(=O)(=O)C3(C(=O)NO)CCN(c4nc5ccccc5s4)CC3)CC2)cc1", "> 10 µM"],
  ["CCCCC(=O)c1ccc(N2CCN(S(=O)(=O)C3(C(=O)NO)CCN(CCOC)CC3)CC2)cc1", "7.36 µM"],
  ["CCCC(C)Cc1ccc(N2CCN(S(=O)(=O)C3(C(=O)NO)CCN(CCOC)CC3)CC2)cc1 (stereo not shown)", "> 10 µM"],
  ["O=C(NO)C1(S(=O)(=O)N2CCN(c3ccc(OCCCC(F)(F)F)cc3F)CC2)CCOCC1 [Example 81]", "> 10 µM"]
]}

----------
# Target or test system: MMP-14 (Homo sapiens, UniProt P50281)
# Construct: The catalytic domain enzyme was expressed in E. coli inclusion bodies, solubilized in urea; made in house
# Assay comment: MMP-14 inhibition (in vitro Ki)
# Format: biochemical
# Run parameters: Table 9; read-out: MMP-14 Ki (IC-50)
pKi: −log10 of the molar value.

{"columns": ["Smiles notation", "pKi"],
 "data": [
  ["Cn1nnc(-c2ccc(C3CCN(S(=O)(=O)C4(C(=O)NO)CCOCC4)CC3)cc2)n1", 5.91],
  ["CCc1nc(-c2ccc(N3CCN(S(=O)(=O)C4(C(=O)NO)CCOCC4)CC3)cc2)no1", 6.74],
  ["O=C(NO)C1(S(=O)(=O)N2CCC(c3ccc(CCc4ccsc4)cn3)CC2)CCOCC1", 5.64],
  ["O=C(NO)C1(S(=O)(=O)N2CCC(c3ccc(OCC4CC4)cn3)CC2)CCOCC1", 5.44],
  ["O=C(NO)C1(S(=O)(=O)N2CCC(c3ccc(CCC(F)(F)C(F)(F)F)cn3)CC2)CCN(C2CC2)CC1", 5.29],
  ["O=C(NO)C1(S(=O)(=O)N2CCN(c3ccc(-c4cccnc4)c(F)c3)CC2)CCOCC1", 5.61],
  ["COCCCc1ccc(C2CCN(S(=O)(=O)C3(C(=O)NO)CCOCC3)CC2)nc1", 5.30],
  ["O=C(NO)C1(S(=O)(=O)N2CCC(c3ccc(C#CCCO)cn3)CC2)CCOCC1", 5.41]
]}
